TARGET SYSTEM: UniProt:P35408
Sequence (P35408 whole entry): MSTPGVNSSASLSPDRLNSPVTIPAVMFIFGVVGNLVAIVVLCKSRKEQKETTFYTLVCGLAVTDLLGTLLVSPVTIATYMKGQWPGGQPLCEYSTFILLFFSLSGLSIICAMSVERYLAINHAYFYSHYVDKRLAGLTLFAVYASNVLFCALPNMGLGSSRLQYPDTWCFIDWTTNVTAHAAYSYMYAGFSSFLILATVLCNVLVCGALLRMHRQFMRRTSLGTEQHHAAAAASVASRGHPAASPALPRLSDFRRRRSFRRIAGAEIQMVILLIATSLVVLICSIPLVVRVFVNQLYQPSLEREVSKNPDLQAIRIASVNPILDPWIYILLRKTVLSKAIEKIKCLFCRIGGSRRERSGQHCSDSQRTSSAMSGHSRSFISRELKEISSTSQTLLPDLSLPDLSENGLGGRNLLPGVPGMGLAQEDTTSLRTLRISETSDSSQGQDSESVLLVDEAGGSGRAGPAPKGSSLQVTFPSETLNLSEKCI
PROTOCOL DESCRIPTION: FLIPR Assay: Cells were seeded at a density of 5×10^4 cells per well in Biocoat® Poly-D-lysine-coated black-wall, clear-bottom 96-well plates (Becton-Dickinson) and allowed to attach overnight in an incubator at 37° C. Cells were then washed two times with HBSS-HEPES buffer (Hanks Balanced Salt Solution without bicarbonate and phenol red, 20 mM HEPES, pH 7.4) using a Denley Cellwash plate washer (Labsystems). After 45 minutes of dye-loading in the dark, using the calcium-sensitive dye Fluo-4 AM at a final concentration of […], plates were washed four times with HBSS-HEPES buffer to remove excess dye leaving […] in each well. Plates were re-equilibrated to 37° C. for a few minutes.Cells were excited with an Argon laser at 488 nm, and emission was measured through a 510-570 nm bandwidth emission filter (FLIPR™, Molecular Devices, Sunnyvale, Calif.). Drug solution was added in a 50 μl volume to each well to give the desired final concentration. The peak increase in fluorescence intensity was recorded for each well. On each plate, four wells each served as negative (HBSS-HEPES buffer) and positive controls (standard agonists: BW245C (hDP); PGE2 (hEP1; hEP2/Gqs5; hEP3A/Gqi5; hEP4/Gqs5); PGF2a (hFP); carbacyclin (hIP); U-46619 (hTP), depending on receptor). The peak fluorescence change in each drug-containing well was then expressed relative to the controls.
MEASURED QUANTITY: EC50 (nM)

I = COc1cc(CN2CCc3cc(F)cc(CCc4ccc(C(=O)O)cc4)c32)cc(OC)c1
II = O=C(O)c1ccc(CCc2cccc3c2N(Cc2cc(F)cc(F)c2)CC3)cc1
Ask: Lab note: record which item had the higher EC50, I or II . Choose, then provide that item's label.
Result: II

###

TARGET SYSTEM: Prostaglandin E2 receptor EP2 subtype (Homo sapiens, UniProt P43116)
Sequence (P43116 whole entry): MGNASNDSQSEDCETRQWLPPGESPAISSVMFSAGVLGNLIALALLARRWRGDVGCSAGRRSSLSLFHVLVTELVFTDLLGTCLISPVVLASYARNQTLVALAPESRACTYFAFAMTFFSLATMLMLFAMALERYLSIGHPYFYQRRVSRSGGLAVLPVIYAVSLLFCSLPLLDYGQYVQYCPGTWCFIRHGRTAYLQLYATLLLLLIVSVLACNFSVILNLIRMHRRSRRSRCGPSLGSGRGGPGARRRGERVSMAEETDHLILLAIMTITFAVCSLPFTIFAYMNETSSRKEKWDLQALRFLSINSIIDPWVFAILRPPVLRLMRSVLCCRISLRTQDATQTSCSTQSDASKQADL
PROTOCOL DESCRIPTION: FLIPR Assay: Cells were seeded at a density of 5×10^4 cells per well in Biocoat® Poly-D-lysine-coated black-wall, clear-bottom 96-well plates (Becton-Dickinson) and allowed to attach overnight in an incubator at 37° C. Cells were then washed two times with HBSS-HEPES buffer (Hanks Balanced Salt Solution without bicarbonate and phenol red, 20 mM HEPES, pH 7.4) using a Denley Cellwash plate washer (Labsystems). After 45 minutes of dye-loading in the dark, using the calcium-sensitive dye Fluo-4 AM at a final concentration of […], plates were washed four times with HBSS-HEPES buffer to remove excess dye leaving […] in each well. Plates were re-equilibrated to 37° C. for a few minutes.Cells were excited with an Argon laser at 488 nm, and emission was measured through a 510-570 nm bandwidth emission filter (FLIPR™, Molecular Devices, Sunnyvale, Calif.). Drug solution was added in a 50 μl volume to each well to give the desired final concentration. The peak increase in fluorescence intensity was recorded for each well. On each plate, four wells each served as negative (HBSS-HEPES buffer) and positive controls (standard agonists: BW245C (hDP); PGE2 (hEP1; hEP2/Gqs5; hEP3A/Gqi5; hEP4/Gqs5); PGF2a (hFP); carbacyclin (hIP); U-46619 (hTP), depending on receptor). The peak fluorescence change in each drug-containing well was then expressed relative to the controls.
MEASURED QUANTITY: Ki (nM)

1 = O=C(O)c1ccc(CCc2cccc3c2N(CCc2ccccc2)CC3)cc1
2 = O=C(O)c1ccc(CCc2cccc3c2N(Cc2ccc(F)cc2)CC3)cc1
Ask: Problem: Given the entries 1 and 2 , determine which has the lower reported Ki. Choose, then provide that item's label.
Result: 2
(2: 14 nM, 1: 202 nM)

I = COc1cccc(CN2CCc3cccc(CCc4ccc(C(=O)O)cc4)c32)c1
II = O=C(O)c1ccc(CCc2cccc3c2N(Cc2cccc(C(F)(F)F)c2)CC3)cc1
III = COc1cc(OC)cc(C(=O)N2CCc3cccc(CCc4ccc(C(=O)O)cc4)c32)c1
Ask: Sequence the entries by Ki, beginning with the highest number. Answer by naming the labels in the order asked.
Result: III, I, II
